PROCEDURE TEXT: Equilibrium solubility in pH buffers (3.0-8.0), 20% captisol and water
Format: physicochemical
EXPERIMENTAL CONTEXT: pH = 7.0 buffer (50 mM phosphate), 24 hrs
Where a name gives a salt, the structure may show the parent alone.
ASSAY METRIC: pH of supernatant (final pH)

| MOLECULE | pH of supernatant (final pH) |
| --- | --- |
| CC(=O)NCC1CCN(Cc2cc(Oc3ccc(N4CCN(CCC(=O)O)CC4)nc3)nc(-c3cc(Cl)cc(Cl)c3)c2)CC1 [Sulfate Type B] | 5.6 |
| CC(=O)NCC1CCN(Cc2cc(Oc3ccc(N4CCN(CCC(=O)O)CC4)nc3)nc(-c3cc(Cl)cc(Cl)c3)c2)CC1 [HCl salt Type F] | 6.5 |
| CC(=O)NCC1CCN(Cc2cc(Oc3ccc(N4CCN(CCC(=O)O)CC4)nc3)nc(-c3cc(Cl)cc(Cl)c3)c2)CC1 [Freeform Type A] | 7.1 |

# next molecule below
Field request: pH of supernatant (final pH) | item: CC(=O)NCC1CCN(Cc2cc(Oc3ccc(N4CCN(CCC(=O)O)CC4)nc3)nc(-c3cc(Cl)cc(Cl)c3)c2)CC1 [Fumarate Type A] 6.6

====

As shown below, each of these molecules has a reported S: solubility value.
PROCEDURE TEXT: Equilibrium solubility in pH buffers (3.0-8.0), 20% captisol and water
Type: physicochemical
EXPERIMENTAL CONTEXT: pH = 6.0 buffer (50 mM citrate), RT, 24 hrs
Where a name gives a salt, the structure may show the parent alone.
Answer in mg/mL, number only, no unit symbol.

These solved cases illustrate the format of a correct answer.
| MOLECULE | ASSAY METRIC | UOM | MEASUREMENT |
| --- | --- | --- | --- |
| CC(=O)NCC1CCN(Cc2cc(Oc3ccc(N4CCN(CCC(=O)O)CC4)nc3)nc(-c3cc(Cl)cc(Cl)c3)c2)CC1 [Fumarate Type A] | S: solubility | mg/mL | 20.6 |
| CC(=O)NCC1CCN(Cc2cc(Oc3ccc(N4CCN(CCC(=O)O)CC4)nc3)nc(-c3cc(Cl)cc(Cl)c3)c2)CC1 [HCl salt Type F] | S: solubility | mg/mL | 0.62 |

Please find the next molecule below.
Fill blank: measured S: solubility of the molecule CC(=O)NCC1CCN(Cc2cc(Oc3ccc(N4CCN(CCC(=O)O)CC4)nc3)nc(-c3cc(Cl)cc(Cl)c3)c2)CC1 [Freeform Type A] is ____. 0.18

====

# Lookup of reported pH (final, after adjustment where adjusted) keyed by entry
PROCEDURE TEXT: Equilibrium solubility in pH buffers (pH 4.0-6.0) with pH adjustment
Format: physicochemical
EXPERIMENTAL CONTEXT: pH = 6.0 buffer (50 mM citrate)
Counter-ions that a name gives are not always drawn.
Answer as a number with no unit attached.

| COMPOUND | MEASUREMENT |
| --- | --- |
| CC(=O)NCC1CCN(Cc2cc(Oc3ccc(N4CCN(CCC(=O)O)CC4)nc3)nc(-c3cc(Cl)cc(Cl)c3)c2)CC1 [HCl salt Type F] | 5.7 |

Moving on to the next compound.
Fill in: pH (final, after adjustment where adjusted) of CC(=O)NCC1CCN(Cc2cc(Oc3ccc(N4CCN(CCC(=O)O)CC4)nc3)nc(-c3cc(Cl)cc(Cl)c3)c2)CC1 [Freeform Type A] is ___ 6.0
